- Tested on: CYP1A1 mRNA in primary human hepatocytes
- testDetails: CYP1A1 mRNA expression in primary human hepatocytes
- Type: cell-based
- conditionDescription: 10 µM
measurementLabel: CYP1A1 mRNA fold induction over the vehicle-treated cells, LH46 (fold)
Report the value in fold with no unit label.

[
  {
    "molecule": "OC[C@H]1O[C@@H](O[C@H]2[C@@H](Oc3cc4c(O)cc(O)cc4[o+]c3-c3ccc(O)c(O)c3)O[C@H](CO)[C@@H](O)[C@@H]2O)[C@H](O)[C@@H](O)[C@@H]1O.[Cl-] [CYA-4, cyanidin-3-O-sophoroside chloride]",
    "valueUnit": "fold",
    "recordedValue": 2.97
  }
]

// next entry
Enquiry: State its CYP1A1 mRNA fold induction over the vehicle-treated cells, LH46 for this molecule: OC[C@H]1O[C@@H](Oc2cc3c(O)cc(O)cc3[o+]c2-c2ccc(O)c(O)c2)[C@H](O)[C@@H](O)[C@H]1O.[Cl-] [CYA-7, cyanidin-3-O-galactoside chloride]
Return: 2.62

====

- Tested on: CYP1A1 mRNA in primary human hepatocytes
- testDetails: CYP1A1 mRNA expression in primary human hepatocytes
- Format: cell-based
- conditionDescription: hepatocyte culture LH46, 10 µM, 24 h
Measured CYP1A1 mRNA fold induction over the vehicle-treated cells, LH46, listed per entry for reference.
Report the value in fold with no unit label.

These solved cases illustrate the format of a correct answer.
[
  {
    "molecule": "OC[C@H]1O[C@@H](Oc2cc3c(O)cc(O)cc3[o+]c2-c2cc(O)c(O)c(O)c2)[C@H](O)[C@@H](O)[C@@H]1O.[Cl-] [DEL-1, delphinidin-3-O-glucoside chloride]",
    "systemTested": "CYP1A1 mRNA in primary human hepatocytes",
    "valueUnit": "fold",
    "recordedValue": 1.99
  },
  {
    "molecule": "C[C@@H]1O[C@@H](Oc2cc3c(O)cc(O)cc3[o+]c2-c2cc(O)c(O)c(O)c2)[C@H](O)[C@H](O)[C@H]1O.[Cl-] [DEL-5, delphinidin-3-O-rhamnoside chloride]",
    "systemTested": "CYP1A1 mRNA in primary human hepatocytes",
    "valueUnit": "fold",
    "recordedValue": 0.98
  },
  {
    "molecule": "OCC1OC(Oc2cc3c(OC4OC(CO)C(O)C(O)C4O)cc(O)cc3[o+]c2-c2cc(O)c(O)c(O)c2)C(O)C(O)C1O.[Cl-] (centres unmarked) [DEL-3, delphinidin-3,5-di-O-glucoside chloride]",
    "systemTested": "CYP1A1 mRNA in primary human hepatocytes",
    "valueUnit": "fold",
    "recordedValue": 0.85
  },
  {
    "molecule": "COc1cc(-c2[o+]c3cc(O)cc(O)c3cc2O[C@@H]2O[C@H](CO)[C@@H](O)[C@H](O)[C@H]2O)ccc1O.[Cl-] [PEO-1, peonidin-3-O-glucoside chloride]",
    "systemTested": "CYP1A1 mRNA in primary human hepatocytes",
    "valueUnit": "fold",
    "recordedValue": 2.14
  }
]

// next entry
Enquiry: State its CYP1A1 mRNA fold induction over the vehicle-treated cells, LH46 for this molecule: CC1OC(OCC2OC(Oc3cc4c(O)cc(O)cc4[o+]c3-c3ccc(O)cc3)C(O)C(O)C2O)C(O)C(O)C1O.[Cl-] (centres unmarked) [PEL-2, pelargonidin-3-O-rutinoside chloride]
Return: 2.66

====

Measured CYP1A1 mRNA fold induction over the vehicle-treated cells, LH45, listed per entry for reference.
- System: CYP1A1 mRNA in primary human hepatocytes
- testDetails: CYP1A1 mRNA expression in primary human hepatocytes
- Assay type: cell-based
- conditionDescription: 50 µM

Enquiry: State its CYP1A1 mRNA fold induction over the vehicle-treated cells, LH45 for this molecule: OC[C@H]1O[C@@H](O[C@H]2[C@@H](Oc3cc4c(O)cc(O)cc4[o+]c3-c3ccc(O)c(O)c3)O[C@H](CO)[C@@H](O)[C@@H]2O)[C@H](O)[C@@H](O)[C@@H]1O.[Cl-] [CYA-4, cyanidin-3-O-sophoroside chloride]
Return: 0.46 ± 0.03 fold

Enquiry: State its CYP1A1 mRNA fold induction over the vehicle-treated cells, LH45 for this molecule: C[C@@H]1O[C@@H](Oc2cc3c(O)cc(O)cc3[o+]c2-c2ccc(O)c(O)c2)[C@H](O)[C@H](O)[C@H]1O.[Cl-] [CYA-6, cyanidin-3-O-rhamnoside chloride]
Return: 0.73 ± 0.04 fold

Enquiry: State its CYP1A1 mRNA fold induction over the vehicle-treated cells, LH45 for this molecule: OC[C@H]1O[C@@H](Oc2cc3c(O)cc(O)cc3[o+]c2-c2ccc(O)c(O)c2)[C@H](O)[C@@H](O)[C@H]1O.[Cl-] [CYA-7, cyanidin-3-O-galactoside chloride]
Return: 0.34 ± 0.06 fold

====

- Test system: CYP1A1 mRNA
- testDetails: CYP1A1 mRNA expression in primary human hepatocytes
- Type: cell-based
- conditionDescription: male, human, primary human hepatocytes (culture LH47)
Measured fold induction at 24 h, 50 µM, listed per entry for reference.
Simply state the number, no unit and no words.

[
  {
    "compound": "OC[C@H]1O[C@@H](Oc2cc3c(O)cc(O)cc3[o+]c2-c2ccc(O)c(O)c2)[C@H](O)[C@@H](O)[C@@H]1O [CYA-1, cyanidin-3-O-glucoside chloride]",
    "measurementLabel": "fold induction at 24 h, 50 µM",
    "recordedValue": 0.28
  },
  {
    "compound": "COc1cc(-c2[o+]c3cc(O)cc(O)c3cc2O[C@@H]2O[C@H](CO)[C@@H](O)[C@H](O)[C@H]2O)cc(OC)c1O [MAL-1, malvidin-3-O-glucoside chloride]",
    "measurementLabel": "fold induction at 24 h, 50 µM",
    "recordedValue": 0.14
  }
]

// next entry
Enquiry: State its fold induction at 24 h, 50 µM for this compound: OC[C@H]1O[C@@H](Oc2cc3c(O[C@@H]4O[C@H](CO)[C@@H](O)[C@H](O)[C@H]4O)cc(O)cc3[o+]c2-c2ccc(O)c(O)c2)[C@H](O)[C@@H](O)[C@@H]1O [CYA-3, cyanidin-3,5-di-O-glucoside chloride]
Return: 0.45

====

- Tested on: CYP1A1 mRNA in primary human hepatocytes
- testDetails: CYP1A1 mRNA expression in primary human hepatocytes
- Type: cell-based
- conditionDescription: 50 µM
measurementLabel: CYP1A1 mRNA fold induction over the vehicle-treated cells, LH48 (fold)
Report the value in fold with no unit label.

These solved cases illustrate the format of a correct answer.
[
  {
    "compound": "C[C@@H]1O[C@@H](OC[C@H]2O[C@@H](Oc3cc4c(O)cc(O)cc4[o+]c3-c3ccc(O)c(O)c3)[C@H](O)[C@@H](O)[C@@H]2O)[C@H](O)[C@H](O)[C@H]1O.[Cl-] [CYA-2, cyanidin-3-O-rutinoside chloride]",
    "systemTested": "CYP1A1 mRNA in primary human hepatocytes",
    "recordedValue": 0.07
  },
  {
    "compound": "C[C@@H]1O[C@@H](Oc2cc3c(O)cc(O)cc3[o+]c2-c2ccc(O)c(O)c2)[C@H](O)[C@H](O)[C@H]1O.[Cl-] [CYA-6, cyanidin-3-O-rhamnoside chloride]",
    "systemTested": "CYP1A1 mRNA in primary human hepatocytes",
    "recordedValue": 0.07
  }
]

Enquiry: State its CYP1A1 mRNA fold induction over the vehicle-treated cells, LH48 for this compound: OC[C@H]1O[C@@H](Oc2cc3c(O)cc(O)cc3[o+]c2-c2ccc(O)c(O)c2)[C@H](O[C@@H]2OC[C@@H](O)[C@H](O)[C@H]2O)[C@@H](O)[C@H]1O.[Cl-] [CYA-9, cyanidin-3-O-lathyroside chloride]
Return: 0.09

====

- System: CYP1A1 mRNA in primary human hepatocytes
- testDetails: CYP1A1 mRNA expression in primary human hepatocytes
- Assay type: cell-based
- conditionDescription: 50 µM
measurementLabel: CYP1A1 mRNA fold induction over the vehicle-treated cells, LH45

These solved cases illustrate the format of a correct answer.
[
  {
    "compound": "Oc1cc(O)c2cc(O[C@@H]3OC[C@H](O)[C@H](O)[C@H]3O)c(-c3ccc(O)c(O)c3)[o+]c2c1.[Cl-] [CYA-5, cyanidin-3-O-arabinoside chloride]",
    "systemTested": "CYP1A1 mRNA in primary human hepatocytes",
    "recordedValue": "1.16 ± 0.17 fold"
  },
  {
    "compound": "OC[C@H]1O[C@@H](Oc2cc3c(O)cc(O)cc3[o+]c2-c2ccc(O)c(O)c2)[C@H](O[C@@H]2OC[C@@H](O)[C@H](O)[C@H]2O)[C@@H](O)[C@H]1O.[Cl-] [CYA-9, cyanidin-3-O-lathyroside chloride]",
    "systemTested": "CYP1A1 mRNA in primary human hepatocytes",
    "recordedValue": "0.61 ± 0.05 fold"
  }
]

// next entry
Enquiry: State its CYP1A1 mRNA fold induction over the vehicle-treated cells, LH45 for this compound: C[C@@H]1O[C@@H](OC[C@H]2O[C@@H](Oc3cc4c(O)cc(O)cc4[o+]c3-c3ccc(O)c(O)c3)[C@H](O)[C@@H](O)[C@@H]2O)[C@H](O)[C@H](O)[C@H]1O.[Cl-] [CYA-2, cyanidin-3-O-rutinoside chloride]
Return: 0.69 ± 0.25 fold

Hello, the source for this data is paper PMC3759295, in case you need it.
